# TGT: CYP2D6 (Homo sapiens (Human), UniProt P10635)
# Sequence (P10635 whole entry, looked up): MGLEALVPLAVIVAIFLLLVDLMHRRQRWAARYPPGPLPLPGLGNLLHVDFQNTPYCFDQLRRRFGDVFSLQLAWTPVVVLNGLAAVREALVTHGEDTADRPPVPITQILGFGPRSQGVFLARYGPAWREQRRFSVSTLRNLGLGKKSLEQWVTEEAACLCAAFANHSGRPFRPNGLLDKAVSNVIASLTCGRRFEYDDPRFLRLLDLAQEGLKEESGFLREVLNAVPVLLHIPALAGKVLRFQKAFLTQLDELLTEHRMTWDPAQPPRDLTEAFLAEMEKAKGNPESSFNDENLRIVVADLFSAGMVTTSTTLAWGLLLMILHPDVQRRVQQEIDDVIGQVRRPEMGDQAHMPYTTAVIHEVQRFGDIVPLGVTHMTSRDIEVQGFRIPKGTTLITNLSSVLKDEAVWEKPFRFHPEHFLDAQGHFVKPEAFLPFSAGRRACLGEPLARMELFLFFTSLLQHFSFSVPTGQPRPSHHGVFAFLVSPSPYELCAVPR
# ASSAY_OVERVIEW: in vitro
# ASSAY_SETUP: liver microsomes, pH 7.4
ENDPOINT: inhibition at 10 min, 1 µM (%)
Give a bare numeral; the unit % is implied.

Quick one: inhibition at 10 min, 1 µM for "C=C[C@H]1C[N@@]2CC[C@H]1C[C@@H]2[C@@H](O)c1ccnc2ccc(OC)cc12" ? 91.7
